Catalogue of OD450 values
experimental-system: T1, human MSLN-FL-his protein (human, UniProt Q13421 296-580)
T1 construct: Made in HEK293E cells, purified on nickel column; it is put last here; also called human MSLN full-length protein; hMSLN-FL-his; not shown: His tag
T1 sequence (Q13421 other isoform, or with tags, fused parts or gaps): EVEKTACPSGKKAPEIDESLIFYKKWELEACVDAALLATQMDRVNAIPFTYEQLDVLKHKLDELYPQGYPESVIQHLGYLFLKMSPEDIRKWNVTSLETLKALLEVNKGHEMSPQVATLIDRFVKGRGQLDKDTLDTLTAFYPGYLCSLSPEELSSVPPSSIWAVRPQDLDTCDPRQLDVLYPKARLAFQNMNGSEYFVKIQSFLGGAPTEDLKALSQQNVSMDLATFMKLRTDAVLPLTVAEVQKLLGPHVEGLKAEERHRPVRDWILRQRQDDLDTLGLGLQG
assay-details: ELISA on coated antigen, antibody 1 nM
Field format: number, assumed OD, no unit text.

Use the examples below as a reference point.
>>> recorded_result("S009-F8-18.9 (antibody, human IgG1, kappa, V domains shown, Human-murine chimeric antibody, human IgG1 heavy and kappa light constant regions) VH: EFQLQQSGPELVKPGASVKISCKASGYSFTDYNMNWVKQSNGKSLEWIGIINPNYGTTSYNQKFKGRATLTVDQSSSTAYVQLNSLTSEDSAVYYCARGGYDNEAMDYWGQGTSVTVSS VL: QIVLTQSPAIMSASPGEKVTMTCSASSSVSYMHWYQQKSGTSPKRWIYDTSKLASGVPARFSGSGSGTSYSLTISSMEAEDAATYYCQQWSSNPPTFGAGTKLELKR")
2.29
>>> recorded_result("S009-F8-24.14 (antibody, human IgG1, kappa, V domains shown, Human-murine chimeric antibody, human IgG1 heavy and kappa light constant regions) VH: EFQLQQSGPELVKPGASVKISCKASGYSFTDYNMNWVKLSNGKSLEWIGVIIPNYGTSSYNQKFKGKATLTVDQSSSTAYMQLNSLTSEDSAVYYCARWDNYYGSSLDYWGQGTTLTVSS VL: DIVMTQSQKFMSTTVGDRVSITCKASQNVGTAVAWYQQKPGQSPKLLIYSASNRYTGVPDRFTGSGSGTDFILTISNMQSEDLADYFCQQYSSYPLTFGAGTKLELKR")
2.77
>>> recorded_result("S009-F8-36.12 (antibody, human IgG1, kappa, V domains shown, Human-murine chimeric antibody, human IgG1 heavy and kappa light constant regions) VH: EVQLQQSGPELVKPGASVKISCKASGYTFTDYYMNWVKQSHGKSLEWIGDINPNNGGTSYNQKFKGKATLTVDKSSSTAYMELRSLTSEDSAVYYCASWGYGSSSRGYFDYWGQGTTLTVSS VL: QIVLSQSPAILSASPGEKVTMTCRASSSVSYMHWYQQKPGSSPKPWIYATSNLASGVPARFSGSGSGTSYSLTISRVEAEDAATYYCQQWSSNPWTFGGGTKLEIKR")
2.21
>>> recorded_result("S009-F8-15.19 (antibody, human IgG1, kappa, V domains shown, Human-murine chimeric antibody, human IgG1 heavy and kappa light constant regions) VH: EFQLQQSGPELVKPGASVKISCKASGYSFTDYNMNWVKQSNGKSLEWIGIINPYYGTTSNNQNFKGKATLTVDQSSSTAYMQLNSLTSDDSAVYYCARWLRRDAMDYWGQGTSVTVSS VL: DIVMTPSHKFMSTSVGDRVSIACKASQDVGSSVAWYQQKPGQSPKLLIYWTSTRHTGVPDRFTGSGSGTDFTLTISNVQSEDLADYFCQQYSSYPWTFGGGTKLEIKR")
2.23
>>> recorded_result("S009-F8-32.3 (antibody, human IgG1, kappa, V domains shown, Human-murine chimeric antibody, human IgG1 heavy and kappa light constant regions) VH: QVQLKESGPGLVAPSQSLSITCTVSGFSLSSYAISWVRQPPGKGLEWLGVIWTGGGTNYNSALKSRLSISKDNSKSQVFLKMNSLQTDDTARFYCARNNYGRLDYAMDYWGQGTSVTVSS VL: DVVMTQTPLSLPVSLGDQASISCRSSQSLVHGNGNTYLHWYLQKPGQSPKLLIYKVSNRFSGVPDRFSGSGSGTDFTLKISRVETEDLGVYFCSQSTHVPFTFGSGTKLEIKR")
2.64
>>> recorded_result("S009-F8-12.13 (antibody, human IgG1, kappa, V domains shown, Human-murine chimeric antibody, human IgG1 heavy and kappa light constant regions) VH: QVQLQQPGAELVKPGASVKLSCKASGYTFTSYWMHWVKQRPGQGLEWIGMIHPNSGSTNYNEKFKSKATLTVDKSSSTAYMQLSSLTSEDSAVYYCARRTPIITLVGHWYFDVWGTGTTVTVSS VL: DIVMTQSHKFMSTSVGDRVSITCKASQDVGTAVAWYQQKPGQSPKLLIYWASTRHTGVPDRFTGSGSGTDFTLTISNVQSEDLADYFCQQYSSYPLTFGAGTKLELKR")
2.42
>>> recorded_result("S009-F8-31.22 (antibody, human IgG1, kappa, V domains shown, Human-murine chimeric antibody, human IgG1 heavy and kappa light constant regions) VH: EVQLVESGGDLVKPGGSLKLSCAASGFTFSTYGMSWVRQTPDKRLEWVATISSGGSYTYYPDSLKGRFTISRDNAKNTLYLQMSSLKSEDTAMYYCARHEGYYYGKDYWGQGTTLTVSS VL: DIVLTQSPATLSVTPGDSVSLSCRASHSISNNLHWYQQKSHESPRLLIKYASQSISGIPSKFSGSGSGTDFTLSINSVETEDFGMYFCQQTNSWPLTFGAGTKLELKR")
2.53
>>> recorded_result("S009-F8-8.22 (antibody, human IgG1, kappa, V domains shown, Human-murine chimeric antibody, human IgG1 heavy and kappa light constant regions) VH: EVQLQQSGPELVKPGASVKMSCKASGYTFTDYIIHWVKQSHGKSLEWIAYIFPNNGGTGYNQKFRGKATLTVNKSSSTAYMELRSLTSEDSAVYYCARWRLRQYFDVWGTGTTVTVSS VL: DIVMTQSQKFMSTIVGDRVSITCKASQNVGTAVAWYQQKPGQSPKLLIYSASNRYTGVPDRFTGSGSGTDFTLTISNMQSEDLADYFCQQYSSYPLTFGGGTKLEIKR")
2.75

Summary for this binder, S009-F8-7.5 (antibody, human IgG1, kappa, V domains shown, Human-murine chimeric antibody, human IgG1 heavy and kappa light constant regions) VH: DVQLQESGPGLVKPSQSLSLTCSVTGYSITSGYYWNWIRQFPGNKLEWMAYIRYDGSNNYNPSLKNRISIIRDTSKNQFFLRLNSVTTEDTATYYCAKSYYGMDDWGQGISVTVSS VL: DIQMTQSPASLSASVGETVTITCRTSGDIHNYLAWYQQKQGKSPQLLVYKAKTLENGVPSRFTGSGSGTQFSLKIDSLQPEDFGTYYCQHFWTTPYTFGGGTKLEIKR : OD450 is 2.55

Summary for this binder, S009-F8-29.1 (antibody, human IgG1, kappa, V domains shown, Human-murine chimeric antibody, human IgG1 heavy and kappa light constant regions) VH: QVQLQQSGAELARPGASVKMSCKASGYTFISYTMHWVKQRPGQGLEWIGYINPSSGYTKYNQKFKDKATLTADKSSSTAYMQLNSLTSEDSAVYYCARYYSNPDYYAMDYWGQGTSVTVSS VL: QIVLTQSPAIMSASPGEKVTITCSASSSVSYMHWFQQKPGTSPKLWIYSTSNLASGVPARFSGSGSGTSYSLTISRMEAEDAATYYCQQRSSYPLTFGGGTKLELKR : OD450 is 2.9
